Exercise: state measured phosphorylation enrichment for each of the sequences provided.
Target Of Assay: MERTK (UniProt Q12866)
Sequence (Q12866 whole entry, looked up): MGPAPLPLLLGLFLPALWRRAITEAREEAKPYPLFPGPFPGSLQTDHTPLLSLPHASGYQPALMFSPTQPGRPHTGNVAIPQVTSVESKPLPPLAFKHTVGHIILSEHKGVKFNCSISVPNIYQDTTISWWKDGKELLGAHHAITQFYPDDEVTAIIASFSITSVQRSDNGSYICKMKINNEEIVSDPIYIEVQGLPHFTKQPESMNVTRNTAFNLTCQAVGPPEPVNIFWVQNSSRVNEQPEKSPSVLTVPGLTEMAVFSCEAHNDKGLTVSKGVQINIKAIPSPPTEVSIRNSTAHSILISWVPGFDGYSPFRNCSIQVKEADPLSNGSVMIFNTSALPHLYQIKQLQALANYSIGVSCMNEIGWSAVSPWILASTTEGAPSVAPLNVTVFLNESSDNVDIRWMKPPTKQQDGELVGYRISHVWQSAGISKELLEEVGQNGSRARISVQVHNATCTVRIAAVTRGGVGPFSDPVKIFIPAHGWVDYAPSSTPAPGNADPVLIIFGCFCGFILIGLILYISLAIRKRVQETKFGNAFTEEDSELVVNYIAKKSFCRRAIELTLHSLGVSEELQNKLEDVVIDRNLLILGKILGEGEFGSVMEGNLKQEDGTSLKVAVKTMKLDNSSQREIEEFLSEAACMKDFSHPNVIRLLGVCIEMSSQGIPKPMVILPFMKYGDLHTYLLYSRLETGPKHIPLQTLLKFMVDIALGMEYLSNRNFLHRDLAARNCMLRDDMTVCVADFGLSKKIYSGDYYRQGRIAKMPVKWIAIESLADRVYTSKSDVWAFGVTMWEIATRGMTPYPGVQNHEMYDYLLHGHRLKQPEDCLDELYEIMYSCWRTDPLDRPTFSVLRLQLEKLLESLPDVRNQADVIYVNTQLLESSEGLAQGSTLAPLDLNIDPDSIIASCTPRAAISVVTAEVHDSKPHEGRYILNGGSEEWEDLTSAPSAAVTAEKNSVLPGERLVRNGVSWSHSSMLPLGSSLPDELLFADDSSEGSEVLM
Assay Notes: phosphorylation enrichment, bacterial display (enrichment ratio); higher = better substrate or ligand; peptides without Tyr show the background;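 further: 11-residue human phosphosite peptides and single-mutation variants displayed on the E. coli surface, counted by deep sequencing, each peptide's frequency after selection divided by its frequency in the unselected input library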;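 further: frequency after pTyr selection over input frequency; kinase dosed for 20-30% of maximal phosphorylation in three min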

Use the examples below as a reference point.
• SSNLYYRCLTA [CNGA3_Y169_W171C] = 1.89
• PPDGEYFTLQI [TP53_Y327_L323P] = 0.902
• EAIAKYDFKAT [GRB2_Y7] = 0.396
• SIKDKYVMALF [KCNH2_Y611_T613M_YF] = 0.447
• HAVYVCDICHV [TWNK_Y508_Y508C] = 0.524

// each listed sequence needs a value for phosphorylation enrichment
1. RICRRYCQVLN [IQCF1_Y144_R141C]
2. REETTYLPLTS [ICAM3_Y527_S525T]
3. RMDGTYACSYT [FLNB_Y704]
4. CSTIHYNYMCN [TP53_Y234_T230S]
5. GHEYIYVDPMQ [PDGFRA_Y574]
6. ADFPDYKFRPR [SOX11_Y116_YF]

0.758
0.901
0.757
0.375
4.29
0.413

// each listed sequence needs a value for phosphorylation enrichment
1. KMKGEYFRFLA [YWHAG_Y130_D129E_YF]
2. DRLAVCIDRVR [LMNA_Y45_Y45C]

1: 0.598; 2: 0.394

---

Exercise: state measured phosphorylation enrichment for each of the sequences provided.
Target Of Assay: Fyn (UniProt P06241)
Sequence (P06241 whole entry, looked up): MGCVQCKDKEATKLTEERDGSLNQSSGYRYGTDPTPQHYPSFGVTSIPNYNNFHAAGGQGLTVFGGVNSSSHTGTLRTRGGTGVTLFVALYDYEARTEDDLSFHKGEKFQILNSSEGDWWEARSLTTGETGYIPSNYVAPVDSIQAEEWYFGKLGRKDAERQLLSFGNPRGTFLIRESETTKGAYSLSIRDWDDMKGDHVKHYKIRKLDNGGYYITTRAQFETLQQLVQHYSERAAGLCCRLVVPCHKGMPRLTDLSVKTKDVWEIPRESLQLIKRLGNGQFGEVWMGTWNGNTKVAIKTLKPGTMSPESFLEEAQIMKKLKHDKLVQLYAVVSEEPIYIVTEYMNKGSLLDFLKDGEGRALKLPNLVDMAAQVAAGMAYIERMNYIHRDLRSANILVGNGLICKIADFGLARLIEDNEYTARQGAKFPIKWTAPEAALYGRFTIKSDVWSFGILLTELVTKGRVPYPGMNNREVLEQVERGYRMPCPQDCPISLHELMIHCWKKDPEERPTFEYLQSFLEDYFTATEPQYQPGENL
Assay Notes: phosphorylation enrichment, bacterial display (enrichment ratio); higher = better substrate or ligand; peptides without Tyr show the background
Numbers only.

Use the examples below as a reference point.
* NLGQQYNSPQE [UMPS_Y432] | 0.495
* ERRLIYTSDPK [VPS13D_Y864] | 0.444
* GYITSYREEEQ | 0.554
* AMCVCYDGVEV [ADAMTSL2_Y594_R593C] | 0.68
* AIKSFYAALID [RYR1_Y2426_M2423K] | 0.504

// each listed sequence needs a value for phosphorylation enrichment
1. ILGRFYETGSI [PAX2_Y73_YF]
2. TNFRLYLRSLE [MTM1_Y71_YF]
3. KGYCGYSYDDI [TMEM230_Y110_R108C]
4. AIMSFYAALID [RYR1_Y2426]

[0.5, 0.449, 0.468, 0.506]

---

Tested on: Fer (mouse)
Assay Notes: phosphorylation enrichment, bacterial display (enrichment ratio); higher = better substrate or ligand; peptides without Tyr show the background
Could you label it Yes if measured phosphorylation enrichment is 0.6 or higher, and No otherwise?

Observe how each entry below is paired with its result.
* LYRYGYANTSE [SI_Y1233_C1229Y] | No
* AHDGEYGAEAL [HBA1_Y25_A22D] | No
* RRAKGYPINLY [ITGB2_Y125_D128N] | Yes

Read the next record carefully.
Is phosphorylation enrichment for CITIHYNYMCN [TP53_Y234_T230I] at or above 0.6? No

---

Target Of Assay: FGFR1 (UniProt P11362)
Sequence (P11362 whole entry, looked up): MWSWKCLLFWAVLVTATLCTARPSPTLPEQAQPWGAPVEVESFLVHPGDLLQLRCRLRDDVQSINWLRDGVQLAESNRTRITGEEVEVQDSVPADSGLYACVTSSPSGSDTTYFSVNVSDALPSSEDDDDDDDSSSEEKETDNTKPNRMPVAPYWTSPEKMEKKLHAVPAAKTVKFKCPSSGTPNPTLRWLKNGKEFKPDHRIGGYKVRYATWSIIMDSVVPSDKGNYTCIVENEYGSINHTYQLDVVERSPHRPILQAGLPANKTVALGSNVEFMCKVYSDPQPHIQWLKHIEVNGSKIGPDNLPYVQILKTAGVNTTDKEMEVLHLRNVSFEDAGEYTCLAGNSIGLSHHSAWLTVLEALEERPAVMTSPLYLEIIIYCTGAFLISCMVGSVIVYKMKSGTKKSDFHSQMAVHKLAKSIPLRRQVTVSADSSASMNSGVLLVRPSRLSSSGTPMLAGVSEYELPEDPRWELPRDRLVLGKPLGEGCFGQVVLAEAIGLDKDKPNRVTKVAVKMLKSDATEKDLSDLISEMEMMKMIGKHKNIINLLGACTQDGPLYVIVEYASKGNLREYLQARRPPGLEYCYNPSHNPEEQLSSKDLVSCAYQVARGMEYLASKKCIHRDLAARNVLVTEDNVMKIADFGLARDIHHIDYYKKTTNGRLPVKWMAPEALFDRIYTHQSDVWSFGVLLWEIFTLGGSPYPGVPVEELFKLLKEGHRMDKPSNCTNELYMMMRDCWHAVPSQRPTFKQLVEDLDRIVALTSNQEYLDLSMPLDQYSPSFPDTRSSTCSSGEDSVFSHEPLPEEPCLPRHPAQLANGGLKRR
Assay Notes: phosphorylation enrichment, bacterial display (enrichment ratio); higher = better substrate or ligand; peptides without Tyr show the background
Readout: phosphorylation enrichment

Use the examples below as a reference point.
- GDPTEYYITAI [IGSF22_Y501_S503I]: 2.91
- MAQDIYRASYY [ALK_Y1278_R1275Q]: 0.786
- EASGIYVKSII [PATJ_Y396]: 0.523
- FAADFYKLLGN [ROR2_Y646_YF]: 0.365
- VVKTVYSLQPP [KNSTRN_Y87]: 0.458
- GGDGSYVSVPL [TNNI3K_Y425_S430L]: 0.5
- RRIHSHRGHLW [VHL_Y112_Y112H]: 0.558
- RLLVFYPWTQR [HBB_Y36_V35F]: 0.877

// each listed sequence needs a value for phosphorylation enrichment
1. FVGGFYGGCNE [CTSC_Y352_YF]
2. SEKVVYRRFTE [NCF1_Y41]
3. ANAFIYDVQLP [L1CAM_Y420_V421D_YF]
4. SVTCTYSLALN [TP53_Y126_P128L]
5. LYEDRYLLGTS [ASS1_Y87]
6. RQNQEYEILMD [KRT39_Y379_L383M]
7. IMFTSYFLTIL [TAS2R16_Y239_V235M]

0.632
0.406
0.639
0.653
0.702
0.698
0.732

---

Target Of Assay: EPHB1 (UniProt P54762)
Sequence (P54762 whole entry, looked up): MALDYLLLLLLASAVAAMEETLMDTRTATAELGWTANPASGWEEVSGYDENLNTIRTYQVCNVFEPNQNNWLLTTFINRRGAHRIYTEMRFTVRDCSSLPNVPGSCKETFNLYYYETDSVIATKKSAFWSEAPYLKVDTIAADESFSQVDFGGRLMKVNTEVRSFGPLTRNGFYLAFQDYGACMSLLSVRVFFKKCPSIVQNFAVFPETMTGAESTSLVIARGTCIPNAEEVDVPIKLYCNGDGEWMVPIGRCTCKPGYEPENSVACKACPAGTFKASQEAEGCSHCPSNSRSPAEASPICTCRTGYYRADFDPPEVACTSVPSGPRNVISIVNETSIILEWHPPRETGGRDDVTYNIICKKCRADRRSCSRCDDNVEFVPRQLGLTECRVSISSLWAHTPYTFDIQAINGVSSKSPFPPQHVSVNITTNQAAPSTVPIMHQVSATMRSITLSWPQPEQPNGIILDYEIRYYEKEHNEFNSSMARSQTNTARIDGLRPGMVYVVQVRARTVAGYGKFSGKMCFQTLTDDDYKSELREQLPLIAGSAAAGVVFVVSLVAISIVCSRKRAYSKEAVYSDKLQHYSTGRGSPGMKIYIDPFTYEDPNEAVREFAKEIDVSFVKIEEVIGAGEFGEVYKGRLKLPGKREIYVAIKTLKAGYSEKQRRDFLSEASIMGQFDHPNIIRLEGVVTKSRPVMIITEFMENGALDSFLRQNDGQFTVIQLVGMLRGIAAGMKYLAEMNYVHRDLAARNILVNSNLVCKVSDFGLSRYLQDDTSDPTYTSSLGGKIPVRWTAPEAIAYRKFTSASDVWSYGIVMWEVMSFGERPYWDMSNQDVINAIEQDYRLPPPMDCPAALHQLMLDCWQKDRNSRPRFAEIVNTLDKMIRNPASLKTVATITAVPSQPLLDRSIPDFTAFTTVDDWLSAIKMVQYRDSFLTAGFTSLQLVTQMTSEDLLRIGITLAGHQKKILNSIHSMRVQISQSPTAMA
Assay Notes: phosphorylation enrichment, bacterial display (enrichment ratio); higher = better substrate or ligand; peptides without Tyr show the background
Could you label it fulfilled if measured phosphorylation enrichment is 0.6 or higher, and not fulfilled otherwise?

• KGEDFYFVTCH [FHL1_Y149_C150Y_YF] = fulfilled
• WDLTDYLMKIL [ACTB_Y188_R183W] = not fulfilled
• TAALWYIFLHT [ENG_Y612_S615L_YF] = fulfilled

Is phosphorylation enrichment for QGGRCYMMIVD [GAA_Y438_R437C] at or above 0.6? fulfilled

Is phosphorylation enrichment for DIPIRYSITGV [CDH4_Y205] at or above 0.6? not fulfilled

Is phosphorylation enrichment for NREGVYTVSAP [TGFBI_Y537_F540S] at or above 0.6? not fulfilled

Is phosphorylation enrichment for TISPYYRQSLF [CRYAA_Y48] at or above 0.6? not fulfilled

Is phosphorylation enrichment for CTTIHYNYLCN [TP53_Y234_M237L] at or above 0.6? not fulfilled

Is phosphorylation enrichment for CEHRGFLFLAI [TEK_Y897_Y897F_YF] at or above 0.6? not fulfilled

Is phosphorylation enrichment for GEDEPYAEPYA [APBA1_Y183_S184A] at or above 0.6? fulfilled

Is phosphorylation enrichment for AVLQLYIFVAT [CFTR_Y1014_P1013L] at or above 0.6? fulfilled

Is phosphorylation enrichment for NKEAICSGFIR [SMCHD1_Y283_Y283C_YF] at or above 0.6? not fulfilled

Is phosphorylation enrichment for TNDMRYPMKSE [TGDS_Y302] at or above 0.6? not fulfilled

Is phosphorylation enrichment for MSSLYYANALF [HOXB7_Y6_T9A] at or above 0.6? fulfilled

Is phosphorylation enrichment for TKQLTYEEQDL [PIK3C3_Y310] at or above 0.6? fulfilled

Is phosphorylation enrichment for FLTQHHDAKPQ [ANG_Y38_Y38H] at or above 0.6? not fulfilled

Is phosphorylation enrichment for VKPENYRRLDI [VHL_Y175] at or above 0.6? not fulfilled

---

Target Of Assay: EPHB2 (UniProt P29323)
Sequence (P29323 whole entry, looked up): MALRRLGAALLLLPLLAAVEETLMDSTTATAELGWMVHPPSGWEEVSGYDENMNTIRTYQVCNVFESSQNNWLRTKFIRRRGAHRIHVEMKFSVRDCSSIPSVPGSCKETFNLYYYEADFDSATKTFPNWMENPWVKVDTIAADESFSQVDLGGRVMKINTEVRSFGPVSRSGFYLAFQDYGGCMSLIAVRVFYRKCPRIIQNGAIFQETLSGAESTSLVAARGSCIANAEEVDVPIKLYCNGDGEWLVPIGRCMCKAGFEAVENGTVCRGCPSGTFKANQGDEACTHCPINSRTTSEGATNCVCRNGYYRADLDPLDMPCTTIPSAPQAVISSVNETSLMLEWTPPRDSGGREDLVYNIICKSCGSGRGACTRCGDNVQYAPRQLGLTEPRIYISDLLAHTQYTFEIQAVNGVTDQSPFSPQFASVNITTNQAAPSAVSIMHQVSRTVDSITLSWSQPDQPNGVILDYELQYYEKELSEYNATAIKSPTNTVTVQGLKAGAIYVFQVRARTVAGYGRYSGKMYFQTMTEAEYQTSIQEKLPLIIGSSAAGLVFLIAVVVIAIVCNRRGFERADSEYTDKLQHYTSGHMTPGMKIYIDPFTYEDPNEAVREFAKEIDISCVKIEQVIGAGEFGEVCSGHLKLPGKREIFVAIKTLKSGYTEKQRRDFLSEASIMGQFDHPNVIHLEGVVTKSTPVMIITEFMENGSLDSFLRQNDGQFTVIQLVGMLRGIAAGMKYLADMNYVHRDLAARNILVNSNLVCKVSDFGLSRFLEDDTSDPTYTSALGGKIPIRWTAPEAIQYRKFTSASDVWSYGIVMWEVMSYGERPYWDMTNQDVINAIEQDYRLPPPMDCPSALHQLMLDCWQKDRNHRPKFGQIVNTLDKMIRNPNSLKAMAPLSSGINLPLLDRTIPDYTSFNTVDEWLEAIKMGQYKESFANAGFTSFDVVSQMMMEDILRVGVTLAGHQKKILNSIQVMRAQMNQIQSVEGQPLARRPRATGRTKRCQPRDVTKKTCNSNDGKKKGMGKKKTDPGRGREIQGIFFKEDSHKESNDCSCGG
Assay Notes: phosphorylation enrichment, bacterial display (enrichment ratio); higher = better substrate or ligand; peptides without Tyr show the background
Readout: phosphorylation enrichment
Give bare numbers.

Use the examples below as a reference point.
* MGRVNYGAFIN [GLB1_Y485_YF] | 0.498
* CTTIHFNFMCN [TP53_Y234_Y234F_YF] | 0.656
* SSMIDYKPLEK [MYOC_Y479_N480K] | 0.421
* EKEKEYMLPLD [DNM2_Y563_K562E] | 0.414
* RFQKLYLDRNL [IGFALS_Y248_L244F] | 0.509

// each listed sequence needs a value for phosphorylation enrichment
1. VLSIDYYFPPQ [AR_Y552_P549S]
2. PATFTYDEFKK [COL8A2_Y648_YF]

1: 3.2; 2: 1.24

---

Exercise: state measured phosphorylation enrichment for each of the sequences provided.
Target Of Assay: MERTK (UniProt Q12866)
Assay Notes: phosphorylation enrichment, bacterial display (enrichment ratio); higher = better substrate or ligand; peptides without Tyr show the background

Use the examples below as a reference point.
* RCKSHYAAFSV [C1QTNF1_Y145] | 2.89
* SEKVVYRRFTE [NCF1_Y41] | 0.438
* YADGVYQALEE [DUOX2_Y70] | 1.91
* PAVGIYNGNIN [CDCP1_Y707_D709G] | 0.574
* SVMAEYGLYAA [VSX2_Y219_G223A] | 2.4
* SKNSKCNAEST [PSEN1_Y315_Y315C] | 0.368

// each listed sequence needs a value for phosphorylation enrichment
1. GIVEDYRPTFF [ACVRL1_Y421_P424T_YF]
2. SVVVPYDPPEV [TP53_Y220_E221D]
3. PVQAAYQKVVD [HBB_Y131_A136D]
4. KDGNGYISVAE [CALM3_Y100_A103V]
5. SIKDKYVTVLF [KCNH2_Y611_A614V_YF]
6. PGPPGYCDSSH [COL12A1_Y3043_Q3048H]

[0.452, 0.373, 0.38, 0.418, 0.375, 0.84]

Form: sequence = VQEDIYDEFVV [ALDH2_Y332_E337V] ; phosphorylation enrichment = 3.17
